Hello, the source for this data is paper PMC5931107, in case you need it.

# procedureDetails: Plasma pharmacokinetics, Arm III (i.v. infusion), phase 1 trial
# Assay type: in vivo, human
# assaySetup: human, plasma, iv; Arm III i.v. infusion all doses, day 1, N=7
measuredMetric: Tmax (h)
One number for each entry, in h.

-- ask Tmax for Nc1ncc(-c2cnn(CCO)c2)c2scc(-c3ccc(NC(=O)Nc4cccc(F)c4)cc3)c12 [ilorasertib, Ilorasertib] ?
-- reply 2

----------
# procedureDetails: Plasma pharmacokinetics, Arm III (i.v. infusion), phase 1 trial
# Assay type: in vivo, human
# assaySetup: human, plasma, iv, 16 mg, Arm III i.v. infusion 16 mg, day 15, N=1
measuredMetric: AUC(0-t) (ng·h/mL)
One number for each entry, in ng·h/mL.

-- ask So what does the record say about AUC(0-t) for Nc1ncc(-c2cnn(CCO)c2)c2scc(-c3ccc(NC(=O)Nc4cccc(F)c4)cc3)c12 [ilorasertib, Ilorasertib] ?
-- reply 3040

----------
# procedureDetails: Plasma pharmacokinetics, Arm III (i.v. infusion), phase 1 trial
# Assay type: in vivo, human
# assaySetup: human, plasma, iv, 16 mg, Arm III i.v. infusion 16 mg, day 1, N=1
measuredMetric: clearance (mL/min)
Numbers only, in mL/min.

-- ask Suppose we examine the compound `Nc1ncc(-c2cnn(CCO)c2)c2scc(-c3ccc(NC(=O)Nc4cccc(F)c4)cc3)c12` ; what clearance value has been reported?
-- reply 109

----------
# procedureDetails: Plasma pharmacokinetics, Arm II (oral BID), phase 1 trial
# Format: in vivo, human
# assaySetup: human, plasma, po, 230 mg, Arm II PO BID 230 mg, day 15, N=1
measuredMetric: AUC(0-inf) (ng·h/mL)
One number for each entry, in ng·h/mL.

-- ask Consider the compound shown here: Nc1ncc(-c2cnn(CCO)c2)c2scc(-c3ccc(NC(=O)Nc4cccc(F)c4)cc3)c12 [ilorasertib, Ilorasertib] What is its recorded AUC(0-inf)?
-- reply 13000

----------
# procedureDetails: Plasma pharmacokinetics, Arm II (oral BID), phase 1 trial
# Format: in vivo, human
# assaySetup: human, plasma, po, 60 mg, Arm II PO BID 60 mg, day 15, N=3; read-out: Cmax
measuredMetric: Cmax
Write the figure, then the unit, nothing else.

-- ask Quick one: Cmax of `Nc1ncc(-c2cnn(CCO)c2)c2scc(-c3ccc(NC(=O)Nc4cccc(F)c4)cc3)c12` ?
-- reply 230 ng/mL

----------
# procedureDetails: Plasma pharmacokinetics, Arm II (oral BID), phase 1 trial
# Format: in vivo, human
# assaySetup: human, plasma, po, 230 mg, Arm II PO BID 230 mg, day 15, N=1; read-out: t1/2 (harmonic mean) (converted)
measuredMetric: half-life (h)
Numbers only, in h.

-- ask # half-life lookup, item `Nc1ncc(-c2cnn(CCO)c2)c2scc(-c3ccc(NC(=O)Nc4cccc(F)c4)cc3)c12`
-- reply 8

----------
# procedureDetails: Plasma pharmacokinetics, Arm II (oral BID), phase 1 trial
# Assay type: in vivo, human
# assaySetup: human, plasma, po, 60 mg, Arm II PO BID 60 mg, day 15, N=3
measuredMetric: AUC(0-t) (ng·h/mL)
Give bare numbers, in ng·h/mL.

-- ask Entry `Nc1ncc(-c2cnn(CCO)c2)c2scc(-c3ccc(NC(=O)Nc4cccc(F)c4)cc3)c12` has what AUC(0-t)?
-- reply 2920

----------
# procedureDetails: Plasma pharmacokinetics, Arm II (oral BID), phase 1 trial
# Assay type: in vivo, human
# assaySetup: human, plasma, po, 130 mg, Arm II PO BID 130 mg, day 15, N=3; read-out: Tmax
measuredMetric: Tmax (h)
Give bare numbers, in h.

-- ask Sample `Nc1ncc(-c2cnn(CCO)c2)c2scc(-c3ccc(NC(=O)Nc4cccc(F)c4)cc3)c12` — what was its Tmax?
-- reply 11
